target: T1, human SIRPα variant 2 (human, UniProt P78324 31-504); assay: CELISA, CHO-K1 transfectants; average of two experiments
T1 construct: full length ORF on transfected CHO-K1 cells; also called hSIRPαV2; SIRPαV2
T1 sequence (P78324 other isoform, or with tags, fused parts or gaps mutant limits assumed): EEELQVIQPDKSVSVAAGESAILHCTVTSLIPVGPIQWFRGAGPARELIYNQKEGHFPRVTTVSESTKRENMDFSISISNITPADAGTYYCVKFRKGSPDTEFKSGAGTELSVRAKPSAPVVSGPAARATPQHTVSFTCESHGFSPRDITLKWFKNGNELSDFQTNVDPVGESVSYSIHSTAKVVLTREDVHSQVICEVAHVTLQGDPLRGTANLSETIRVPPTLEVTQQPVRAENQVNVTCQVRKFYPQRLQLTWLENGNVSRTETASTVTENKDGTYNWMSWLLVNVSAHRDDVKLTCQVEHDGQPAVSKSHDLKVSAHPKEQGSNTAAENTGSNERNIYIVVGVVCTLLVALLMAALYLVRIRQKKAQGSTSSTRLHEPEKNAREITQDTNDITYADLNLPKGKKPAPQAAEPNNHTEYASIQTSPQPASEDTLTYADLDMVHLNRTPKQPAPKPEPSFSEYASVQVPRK
Below, each entry is listed alongside its reported EC50.
Write the value in nM as a bare number.

hSIRPα.50A.H5L5 (antibody, human IgG4 S228P, kappa, V domains shown, human IgG4 S228P, kappa; also called hSIRPα.50H5L5) VH: EVQLVQSGAEVVKPGASVKVSCKASGFTFTNYYIHWVRQAPEQGLEWIGWIYPGNVNTKYNEKFKARVTMTADKSTSTAYMELSSLRSDDMAVYYCARPTIIATDFDVWGQGTTVTVSS VL: DIVLTQSPSFLSASVGDRVTITCKASQGVGTAVGWYQQKPGKSPKLLIYWASTRHTGVPDRFSGSGSGTEFTLTISNLQPEDFAAYYCQQYSTYPFTFGGGTKLEIKR yielded EC50 of 0.611

The binder listed as hSIRPα.50A (antibody, V domains shown, light chain constant domain not tied; also called mouse hSIRPα.50A; hSIRPα.50A.mIgG1) VH: QVQLQQSGPELVKPGASVRISCKASGFTFTNYYIHWVKQRPGQGLEWIGWIYPGNVNTKYNEKFKAKATLTADKSSTTAYMQLSSLASEDSAVYFCARPTIIATDFDVWGAGTTVTVSS VL: DIVMTQSHKFMSTSVGDRVNITCKASQGVGTAVGWYQQKPGQSPRLLIYWASTRHTGVPDRFTGSGSGTDFSLAISNVQSEDLADYFCQQYSTYPFTFGGGTNLEIK has a reported EC50 of 1.3

Measured EC50 of hSIRPα.50A.H3L3 (antibody, human IgG4 S228P, kappa, V domains shown, human IgG4 S228P, kappa; also called hSIRPα.50H3L3) VH: EVQLVQSGAEVVKPGASVMISCKASGFTFTNYYIHWVRQRPGQGLEWIGWIYPGNVNTKYNEKFKARVIMTADKSTSTVYMQLSSLTSEDTAVYYCARPTIIATDFDVWGQGTLVTVSS VL: ELVMTQSPSSLSASVGDRVTITCKASQGVGTAVGWYQQKPGKAPKLLIYWASTRHTGVPDRFSGSGSGTDFTLAISSLQPEDIADYYCQQYSTYPFTFGGGTKVEIKR : 1.16
